- System: SKOV3
- TEST PROTOCOL: Primary qHTS to identify gynecologic anti-cancer compounds using libraries of approved drugs and bioactive compounds (AID 1345084); also: nearly all actives have a fitted effect of over 55% in size
- CONDITION SET: Gynecologic cancer cell panel viability, ATPlite luminescence, 48 h; series mostly up to 57.5 µM
Records with an inconclusive call do not appear. Activity calls are given as the source filed them. Calls follow the shape of the dose curve; as a rule, active = well fitted cell-killing curve with a large enough effect; inconclusive = small, poorly fitted or top-dose-only effect, or effect the other way; inactive = flat fitted curve, though single readings scatter.
Answer with one of the outcomes active, inactive

Which outcome was assigned to CCC(=O)N1CCOc2c(cc(-c3ccc(OC)c(OC)c3)cc2OC[C@H]2CCCN(C)C2)C1 in this test?
inactive

Another compound to look at: CC1(CO)CC2C(O)C3=C(CC(C)(O)C2C1)C(=O)OC3 (centres undefined)
inactive

Now this one: COc1c2c(nc3occc13)C(CC=C(C)C)(OC)C(O)CC2 (centres undefined)
inactive

What do you get for Cc1cc(C(=O)Nc2cc(Oc3ccc4nc(NC(=O)C5CC5)cn4n3)ccc2C)n(C)n1 ?
active

Now try O=C(NC[C@H](O)CN1CCc2ccccc2C1)c1ccnc(NC2CCC2)c1 .
inactive

Repeat for the following compound: COc1ccc(N(C(=O)Nc2c(C)cccc2C)c2cc(Nc3ccc(N4CCN(C)CC4)cc3)ncn2)c(OC)c1
active

Consider next the compound CN1CCN(c2ccc(-c3cccc(CN4CCOCC4)c3)cc2NC(=O)c2c[nH]c(=O)cc2C(F)(F)F)CC1 in the same way.
inactive

Could you do the same for Cc1cc(OCCCS(C)(=O)=O)cc(C)c1-c1cccc(COc2ccc(C3=CC(=O)NS3=O)cc2)c1 (centres undefined) , please?
inactive

What do we get for Cn1ncnc1[C@H]1c2n[nH]c(=O)c3cc(F)cc(c23)N[C@@H]1c1ccc(F)cc1 ?
inactive

Also, CCOC(=O)c1csc(Nc2ccc(Cl)cc2)n1 please.
inactive

Also COC(=O)/C=C/C=C/C(=O)OC1C=C2COC(=O)C2(O)C2(C)CCCC(C)(C)C12 (centres undefined) ?
inactive

// next record C=C1CCN([C@H](C)[C@](O)(Cn2cncn2)c2ccc(F)cc2F)CC1
inactive

Similarly, CCOc1ccc(S(=O)(=O)N2CCCCCC2)c2ccccc12 ?
inactive

Do the same for COc1cc(N2CCC(O)CC2)ccc1Nc1nc(Nc2ccccc2S(=O)(=O)C(C)C)c2[nH]cnc2n1 please
inactive

Another compound: CC#CCn1c(N2CCCC(N)C2)nc2c1c(=O)n(Cc1nc(C)c3ccccc3n1)c(=O)n2C (centres undefined)
inactive

Lookup COc1ccc([C@H]2OC[C@H]3O[C@@H](O[C@H]4[C@@H]2NC[C@@H]4O)[C@H](O)[C@H]3O)cc1
active

Also, CCC(C)C(=O)OC12C(OC(C)=O)C(C)C3(O)C(C=C(CO)CC4(O)C(=O)C(C)=CC43)C1C2(C)C (centres undefined) please.
inactive

Further, for O=S(=O)(Nc1ccccc1N1CCCCC1)c1ccc(Cl)s1 ?
inactive

Also need O=C(Nc1cc(C(F)(F)F)cc(C(F)(F)F)c1)c1cnc(Cl)nc1C(F)(F)F , thanks.
inactive
